Overview of reported TGI across a group of compounds:
- System: HepG2
- ASSAY_PROCEDURE: Cytotoxicity against human HepG2 cells after 72 hrs by MTT assay
- Assay type: functional
- PROTOCOL_CONDITIONS: HepG2, 72 h
TEST_READOUT: TGI (µM)

structure_smiles=C[Se]/C(=N\C(=O)c1ccco1)NC(=O)c1ccco1 limit_operator== recorded_number=8.66
structure_smiles=CS/C(=N\C(=O)c1sccc1Cl)NC(=O)c1sccc1Cl limit_operator=> recorded_number=100
structure_smiles=O=C(/N=C(/NC(=O)c1cc(-c2ccccc2)nc2ccccc12)[Se]Cc1ccccc1)c1cc(-c2ccccc2)nc2ccccc12 limit_operator== recorded_number=52.4
structure_smiles=O=C(/N=C(/NC(=O)c1c2ccccc2nc2ccccc12)[Se]Cc1ccccc1)c1c2ccccc2nc2ccccc12 limit_operator== recorded_number=64.5
structure_smiles=C[Se]/C(=N\C(=O)c1csc([N+](=O)[O-])c1)NC(=O)c1csc([N+](=O)[O-])c1 limit_operator== recorded_number=1.55
structure_smiles=C[Se]/C(=N\C(=O)c1cnc2ccccc2c1)NC(=O)c1cnc2ccccc2c1 limit_operator== recorded_number=23.7
structure_smiles=O=C(/N=C(/NC(=O)c1ccco1)[Se]Cc1ccccc1)c1ccco1 limit_operator== recorded_number=39.5
structure_smiles=C[Se]/C(=N\C(=O)c1cccs1)NC(=O)c1cccs1 limit_operator== recorded_number=1.5
structure_smiles=C[Se]/C(=N\C(=O)c1sccc1Cl)NC(=O)c1sccc1Cl limit_operator== recorded_number=4.02
structure_smiles=CS/C(=N\C(=O)c1c2ccccc2nc2ccccc12)NC(=O)c1c2ccccc2nc2ccccc12 limit_operator=> recorded_number=100

FYI, the data here is from ChEMBL document CHEMBL1649384.
